Assay read-out IC50 on Tyrosine-protein kinase receptor UFO (Homo sapiens, UniProt P30530); records merged from the literature.
propertyName: IC50

INSERT INTO measurements (compound, resultvalue) VALUES
  ('CC[C@H](C)Nc1ncc2c(-c3cncc(S(C)(=O)=O)c3)cc([C@H]3CC[C@H](O)CC3)n2n1', '100 to 1000 nM'),
  ('C[C@@H](CC(F)(F)F)Nc1ncc2c(-c3cnn([C@@H]4CCOC4)c3)cc([C@H]3CC[C@H](O)CC3)n2n1', '≤ 100 nM'),
  ('C[C@H](Nc1ncc2c(-c3cnn(C(C)(C)C(=O)N4CCOCC4)c3)cc([C@H]3CC[C@H](O)CC3)n2n1)C(F)(F)F', '≤ 100 nM'),
  ('COC[C@H](C)Nc1ncc2c(-c3ccc(C(=O)N4CCS(=O)(=O)CC4)cc3)cc([C@H]3CC[C@H](O)CC3)n2n1', '≤ 100 nM'),
  ('COC[C@H](C)Nc1ncc2c(-c3cnn(CC4COC4)c3)cc([C@H]3CC[C@H](O)CC3)n2n1', '≤ 100 nM'),
  ('CC[C@H](C)Nc1ncc2c(O[C@H]3CC[C@H](N)CC3)ncc([C@H]3CC[C@H](O)CC3)c2n1', '≤ 100 nM'),
  ('C[C@@H](CC(F)(F)F)Nc1ncc2c(-c3cncc([S@](C)(=N)=O)c3)cc([C@H]3CC[C@H](O)CC3)n2n1', '≤ 100 nM'),
  ('COCCn1cc(-c2cc([C@H]3CC[C@H](O)CC3)n3nc(N[C@@H](C)COC(F)F)ncc23)cn1', '≤ 100 nM'),
  ('COC[C@H](C)Nc1ncc2c(-c3conc3C)cc([C@H]3CC[C@H](O)CC3)n2n1', '≤ 100 nM'),
  ('O=C(Nc1ccc(Oc2ncnc3[nH]cc(-c4ccccc4)c23)c(F)c1)c1cn(C2CC2)c2cc(N3CCNCC3)c(F)cc2c1=O', '110 nM'),
  ('CN1CCC(Nc2ncc3c(OC4CCNCC4)ncc([C@H]4CC[C@H](O)CC4)c3n2)C1=O (stereo partly shown)', '1000 to 10000 nM'),
  ('COc1cc2nccc(Oc3ccc(NC(=O)c4cnc(C)c(/C=C/C5CC5)c4O)cc3F)c2nc1OC', '≤ 100 nM'),
  ('COc1cc2c(Oc3ccc(NC(=O)C4(C(=O)Nc5ccc(F)cc5)CC4)cc3)ccnc2cc1OC(=O)N1CC[C@@H](O)C1', '< 100 nM');

====

Assay read-out pIC50 on Tyrosine-protein kinase receptor UFO (Homo sapiens); records merged from the literature.
pIC50: −log10 of the molar value.
propertyName: pIC50

INSERT INTO results (compound, propertyname, resultvalue) VALUES
  ('COc1cc2nccc(Oc3ccc(NC(=O)c4cc(-c5ccc(C)cc5)cn(CC5CCOCC5)c4=O)nc3)c2cc1OC', 'pIC50', 7.64),
  ('COC[C@H](C)Nc1ncc2c(-c3cnn(C(C)(C)C(=O)O)c3)cc([C@H]3CC[C@H](O)CC3)n2n1', 'pIC50', '6.00 to 7.00'),
  ('CCC[C@@H](C)Nc1ncc2c(OC3CCN(C)CC3)ncc([C@H]3CC[C@H](O)CC3)c2n1', 'pIC50', '6.00 to 7.00'),
  ('CCCC(C)Nc1ncc2c(OC3CCC(OC)CC3)ncc([C@H]3CC[C@H](O)CC3)c2n1 (stereo partly drawn)', 'pIC50', '6.00 to 7.00'),
  ('O[C@H]1CC[C@H](c2cnc(OC3CCNCC3)c3cnc(NC4CCC(F)(F)CC4)nc32)CC1', 'pIC50', '5.00 to 6.00'),
  ('O[C@H]1CC[C@H](c2cnc(OC3CCNCC3)c3cnc(Nc4cccc(Cl)c4)nc32)CC1', 'pIC50', '≥ 7.00'),
  ('Nc1ncc(-c2cnn(C3CCOCC3)c2)cc1-c1cc(-c2ccccc2)on1', 'pIC50', '> 6.30'),
  ('COC[C@H](C)Nc1ncc2c(-c3ccnc(N4CCOCC4)c3)cc([C@H]3CC[C@@H](O)CC3)n2n1', 'pIC50', '≥ 7.00'),
  ('COc1cc2nccc(Oc3ccc(NC(=O)c4c(C)n(C)c(C)c(/C=C/C5CC5)c4=O)cc3F)c2nc1OC', 'pIC50', '≥ 7.00'),
  ('COCC(C)Nc1ncc2c(-c3ccnc(N4CCOC(C(C)(C)O)C4)c3)cc(C3CCC(O)CC3)n2n1 (stereo not drawn)', 'pIC50', '≥ 7.00'),
  ('COC[C@H](C)Nc1ncc2c(-c3ccnc(N4CCNCC4)c3)cc([C@H]3CC[C@H](O)CC3)n2n1', 'pIC50', '≥ 7.00'),
  ('COC[C@H](C)Nc1ncc2c(-c3cnn([C@@H]4CCNC4=O)c3)cc([C@H]3CC[C@H](O)CC3)n2n1', 'pIC50', '≥ 7.00');
